Entries and their drug sensitivity score values follow.
System: DLD1 NRF2-WT
Assay: drug sensitivity score (DSS) viability (DSS score); higher = more sensitive; extreme values may be limits of the assay
Conditions: 72 h; CellTiter-Glo viability
No unit in the answer, please; the number alone is enough.

Solved cases below.
1) COc1cccc2c1c(O)c(C(=O)N(C)c1ccc(C(F)(F)F)cc1)c(=O)n2C [Tasquinimod]
1.8
2) O=C(O)C(=O)O.[NH-][C@@H]1CCCC[C@H]1[NH-].[Pt+2] [Oxaliplatin]
3
3) Cc1sc2c(c1C)C(c1ccc(Cl)cc1)=N[C@@H](CC(=O)NCCCCNC(=O)COc1cccc3c1C(=O)N(C1CCC(=O)NC1=O)C3=O)c1nnc(C)n1-2 (some centres not stated) [dBET1]
6.5
4) Cc1ccc(NC(=O)c2ccc(CN3CCN(C)CC3)cc2)cc1Nc1nccc(-c2cccnc2)n1 [Imatinib]
1.2
5) Nc1ncnc2c1nc(N)n2[C@@H]1O[C@H](CO)[C@@H](O)[C@H]1O [8-amino-adenosine]
20

Quote drug sensitivity score reported for CN(C)C/C=C/C(=O)Nc1cc2c(Nc3ccc(F)c(Cl)c3)ncnc2cc1O[C@H]1CCOC1 [Afatinib] please. 3.3

Quote drug sensitivity score reported for CN(C)C(=O)c1cc2cnc(Nc3ccc(N4CCNCC4)cn3)nc2n1C1CCCC1 [Ribociclib] please. 8.2

Quote drug sensitivity score reported for Nc1cc(COc2c(Cl)cc(C[C@H](N)C(=O)O)cc2Cl)c2oc(-c3ccccc3)nc2c1 [JPH203] please. 4.2

Quote drug sensitivity score reported for CCCCCCCCc1ccc(CCC(N)(CO)CO)cc1 [Fingolimod] please. 5.5

Quote drug sensitivity score reported for O=C(Nc1nc2cccc(-c3ccc(CN4CCS(=O)(=O)CC4)cc3)n2n1)C1CC1 [Filgotinib] please. 6.7

Quote drug sensitivity score reported for Cc1[nH]c2ccccc2c1CCNCc1ccc(/C=C/C(=O)NO)cc1 [Panobinostat] please. 13.3

Quote drug sensitivity score reported for Cc1ccc(C(=O)Nc2cccc(C(F)(F)F)c2)cc1Nc1nc(-c2cccnc2)nc2c1cnn2C [NVP-BHG712] please. 2.2

Quote drug sensitivity score reported for CC(C)(C)c1cnc(CSc2cnc(NC(=O)C3CCNCC3)s2)o1 [SNS-032] please. 23.1

Quote drug sensitivity score reported for CCOc1ccccc1-n1c(C(C)N2CCN(C(=O)COc3ccc(Cl)cc3)CC2)nc2ccccc2c1=O (configuration not stated) [Erastin] please. 0

Quote drug sensitivity score reported for COc1cc(C)[nH]c(=O)c1CNC(=O)c1c(C)n([C@H](C)C2CCOCC2)c2ccccc12 [CPI-360] please. 0

Quote drug sensitivity score reported for CNC(=O)c1nn(C)c2c1C(C)(C)Cc1cnc(Nc3ccc(N4CCN(C)CC4)cc3)nc1-2 [Milciclib] please. 10.8

Quote drug sensitivity score reported for C[C@]1(c2nc3c(C(N)=O)cccc3[nH]2)CCCN1 [Veliparib] please. 2.9

---

Tested on: DLD1 NRF2-WT
Conditions: 72 h; CellTiter-Glo viability
PROPERTY_NAME: EC50 viability (nM)
Lab book: enter the figure in nM, no units written.

Solved cases below.
1) CNC(=O)c1cccc(-c2ccc3c(N4CCOC[C@@H]4C)nc(N4CCOC[C@@H]4C)nc3n2)c1
371
2) CCN(CCO)CCCOc1ccc2c(Nc3cc(CC(=O)Nc4cccc(F)c4)[nH]n3)ncnc2c1
35.5
3) CN1CCc2c(c3ccccc3n2Cc2ccc(C(=O)NO)cc2)C1
295
4) CN(C)C(=O)c1cc2cnc(Nc3ccc(N4CCNCC4)cn3)nc2n1C1CCCC1
460
5) Cc1sc2c(c1C)C(c1ccc(Cl)cc1)=N[C@@H](CC(=O)OC(C)(C)C)c1nnc(C)n1-2
272
6) CC(=O)c1cnc2ccc(-c3cc(Cl)c(O)c(Cl)c3)nc2c1N[C@H]1CC[C@H](CN(C)C)CC1
70.7

Let us move to another entry and its EC50 viability.
Quote EC50 viability reported for "CN(C)Cc1c(C(=O)NCCOc2ccc(C(=O)NO)cc2)oc2ccccc12" please. 582

---

System: DLD1 NRF2-WT
Experiment: drug sensitivity score (DSS) viability (DSS score); higher = more sensitive; extreme values may be limits of the assay
Details: 72 h; CellTiter-Glo viability
PROPERTY_NAME: drug sensitivity score
No unit in the answer, please; the number alone is enough.

Solved cases below.
1) COc1cc(C)c(/C=C/C(C)=C/C=C/C(C)=C/C(=O)O)c(C)c1C [Acitretin]
15.5
2) CC(C)(O)CC(=O)NCCn1ccc2ncnc(Nc3ccc(Oc4cccc(C(F)(F)F)c4)c(Cl)c3)c21 [TAK-285]
5.4
3) NCCNc1ccc(NCCN)c2c1C(=O)c1ccncc1C2=O [Pixantrone]
4

Provide the reported drug sensitivity score (system: DLD1 NRF2-WT) for CC(C)C[C@H](NC(=O)[C@@H](COC(C)(C)C)NC(=O)[C@H](Cc1ccc(O)cc1)NC(=O)[C@H](CO)NC(=O)[C@H](Cc1c[nH]c2ccccc12)NC(=O)[C@H](Cc1cnc[nH]1)NC(=O)[C@@H]1CCC(=O)N1)C(=O)N[C@@H](CCCNC(=N)N)C(=O)N1CCC[C@H]1C(=O)NNC(N)=O [Goserelin] 4.5

Provide the reported drug sensitivity score (system: DLD1 NRF2-WT) for O=S(=O)(c1cccc2c(O)nccc12)N1CCCNCC1 [Hydroxyfasudil] 2.4

Provide the reported drug sensitivity score (system: DLD1 NRF2-WT) for Nc1ccn([C@@H]2O[C@H](CO)[C@@H](O)[C@@H]2O)c(=O)n1 [Cytarabine] 5

Provide the reported drug sensitivity score (system: DLD1 NRF2-WT) for CCc1c(C(=O)C(N)=O)c2c(OCC(=O)O)cccc2n1Cc1ccccc1 [Varespladib] 3.9

Provide the reported drug sensitivity score (system: DLD1 NRF2-WT) for CCS(=O)(=O)N1CCN(c2ccc(Nc3ncc(C(N)=O)c(NC4CC4)n3)cc2)CC1 [Cerdulatinib] 4.3

Provide the reported drug sensitivity score (system: DLD1 NRF2-WT) for "Cc1cccc(CC(=O)N2CCc3c2ccc(-c2cn(C)c4ncnc(N)c24)c3F)n1" 2.5

---

System: DLD1 NRF2-WT
Assay: drug sensitivity score (DSS) cytotoxicity (DSS score); higher = more toxic; extreme values may be limits of the assay
Conditions: 72 h; CellTox Green cytotoxicity
Entries and their drug sensitivity score values follow.
No unit in the answer, please; the number alone is enough.

Solved cases below.
1. COc1cc2c(Oc3ccc(NC(=O)C4(C(=O)Nc5ccc(F)cc5)CC4)cc3F)ccnc2cc1OCCCN1CCOCC1 [Foretinib]
3.2
2. O=C1Cc2cc(C(=O)NC3C[C@H]4CC[C@@H](C3)N4S(=O)(=O)CC3CCN(CCCC(F)(F)F)CC3)c(Cl)cc2N1 (stereo partly specified)
0
3. CCNc1nc(Nc2cc(F)c(C(=O)N3CCOCC3)cc2OC)ncc1C(F)(F)F [GNE-7915]
0
4. COc1cc(Nc2ncc(F)c(Nc3ccc4c(n3)N(COP(=O)(O)O)C(=O)C(C)(C)O4)n2)cc(OC)c1OC [Fostamatinib]
0

Let us move to another entry and its drug sensitivity score.
Quote drug sensitivity score reported for CCCN(CCC)C(=O)C1=Cc2ccc(-c3ccc(C(=O)N4CCCC4)cc3)cc2N=C(N)C1 [Motolimod] please. 0

---

System: DLD1 NRF2-WT
Assay: drug sensitivity score (DSS) viability (DSS score); higher = more sensitive; extreme values may be limits of the assay
Conditions: 72 h; CellTiter-Glo viability
Entries and their drug sensitivity score values follow.
No unit in the answer, please; the number alone is enough.

Solved cases below.
1. CNc1ncc2cc(-c3cc(NC(=O)NCCC(C)(C)C)c(F)cc3C)c(C)nc2n1
9.9
2. C[C@@H](Oc1cc(-n2cnc3ccc(CN4CCN(C)CC4)cc32)sc1C(N)=O)c1ccccc1C(F)(F)F
33.6
3. FC(F)(F)c1ccc(/C=C/c2nc(COc3ccc(CCCCn4ccnn4)cc3)co2)cc1
7.4

Provide the reported drug sensitivity score (system: DLD1 NRF2-WT) for "CO[C@H](C(=O)[C@@H](O)[C@@H](C)O)[C@@H]1Cc2cc3cc(O[C@H]4C[C@@H](O[C@H]5C[C@@H](O)[C@H](O)[C@@H](C)O5)[C@@H](O)[C@@H](C)O4)c(C)c(O)c3c(O)c2C(=O)[C@H]1O[C@H]1C[C@@H](O[C@H]2C[C@@H](O[C@H]3C[C@](C)(O)[C@H](O)[C@@H](C)O3)[C@H](O)[C@@H](C)O2)[C@H](O)[C@@H](C)O1" 21.8

Provide the reported drug sensitivity score (system: DLD1 NRF2-WT) for "CC(=O)OC[C@H]1O[C@@H]([S-])[C@H](OC(C)=O)[C@@H](OC(C)=O)[C@@H]1OC(C)=O.CCP(CC)CC.[Au+]" 5.5

Provide the reported drug sensitivity score (system: DLD1 NRF2-WT) for "COC(=O)c1ccc([C@H]2c3[nH]c4ccccc4c3C[C@H](C(=O)OC)N2C(=O)CCl)cc1" 6.6
